System: OVCAR-3 ovarian
Assay: NCI-60 one-dose screen, 48 h
Conditions: 10 µM
This is part of a sample that, as a whole, favours compounds with a hit. Of some 83,000 tested, about 20% had one in any assay. Calls of active or inactive are those of the source. How the source made its calls: active means growth percent below 10; inactive means the rest.
Outcome field: choose from 1.0 = active, 0.0 = inactive

Take a look at these entries with their results.
molecule	study.target	discrete.label
C#Cc1ccc(-n2c(/C=C/c3cc(OC)c(OC)c(OC)c3)nc3ncccc3c2=O)cc1	OVCAR-3 ovarian	1.0
CCCCCCCCCCSC(=N)N (tested in a mixture with another compound)	OVCAR-3 ovarian	0.0
Fc1ccc2[nH]c3c(NCCCN4CCOCC4)ncnc3c2c1	OVCAR-3 ovarian	0.0
CCOc1nc(-c2ccccc2)cc2c(O)c(C(=O)NCCCO)[nH]c(=O)c12	OVCAR-3 ovarian	0.0
CC(=O)CS(C)(=O)=O	OVCAR-3 ovarian	0.0
FC(F)(F)c1ccc(-c2nc(-c3nc4cc(Cl)c(Cl)cc4[nH]3)c3ccccn23)cc1	OVCAR-3 ovarian	0.0
CCN1CCN(c2ccc(Nc3ncnc4c3nnn4CCc3cc(OC)cc(OC)c3)cc2)CC1	OVCAR-3 ovarian	0.0
Cc1ccccc1C1=N[C@@H](Cc2ccccc2)C(=O)c2c(nc3ccccn23)N1	OVCAR-3 ovarian	0.0
CC1(C)CC(OCCCC[P+](c2ccccc2)(c2ccccc2)c2ccccc2)CC(C)(C)N1O	OVCAR-3 ovarian	1.0
CCCCCCN=C(N)CCCCCCCCCCC(N)=NCCCCCC	OVCAR-3 ovarian	0.0

Query: Record request — test call for O=c1[nH]c(=O)n(C2C[C@@H](O)[C@@H](CO)O2)cc1F (stereo partly specified)
Result: 0.0

Query: Record request — test call for "Nc1c(C(=O)NC2CCCCC2)sc2nc3c(cc12)C(=O)CCC3"
Result: 0.0

Query: Record request — test call for "O=C(O)c1ccccc1C(=O)c1cccc2c(F)cccc12"
Result: 0.0

Query: Record request — test call for "C=CCc1cc(Nc2c3ccc(Cl)cc3nc3ccc(OC)cc23)cc(CN(CC)CC)c1O"
Result: 1.0

Query: Record request — test call for "Cc1ccc(-n2c(-c3cc4c([nH]c5ccccc54)c(-c4cccc(O)c4)n3)n[nH]c2=S)cc1"
Result: 1.0

---

Tested on: SW-620 colon
Experiment: NCI-60 one-dose screen, 48 h (100 = growth as untreated, 0 = no growth, -100 = all killed)
Details: 10 µM
Compounds without any hit were thinned out: in the full panel of roughly 83,000, 20% have a hit.
Sorting guide: entries reporting growth beneath 10% go in the met pile, the rest go in the not met pile.

Query: Please determine if "COc1cc(Cl)cc(-c2nn(-c3cccc(NC(=O)Nc4cccc(C(F)(F)F)c4)c3)cc2-c2ccncc2)c1" is below 10% in terms of growth.
Result: not met

Query: Please determine if "COc1ccc2nc(C)cc(Nc3ccc(Cl)cc3)c2c1" is below 10% in terms of growth.
Result: not met

Query: Please determine if CCCC(C)c1ccc(OCCCCCCN2CCNCC2)cc1 (stereo unspecified) is below 10% in terms of growth.
Result: met

Query: Please determine if "O=C(/C=C/c1nnc2n(Cc3ccccc3)c(=O)c3c4c(sc3n12)CCCC4)c1ccccc1" is below 10% in terms of growth.
Result: met

Query: Please determine if "COc1ccc(-c2ccccc2)cc1C(=O)c1ccc(-c2ccccc2)cc1" is below 10% in terms of growth.
Result: not met
